The entries below are paired with their reported GI50.
tested on: BT-549 breast; assay: NCI tumour cell line growth inhibition, 48 h

molecule: COc1ccc2c(c1)/C(=C/c1cc(OC)c(OC)c(OC)c1)C(=O)N2
GI50: 1.37 µM
//
molecule: c1ccc2[nH]c(-c3ccc(Nc4nc(N5CCCCC5)nc(N5CCOCC5)n4)cc3)nc2c1
GI50: 2.07 µM
//
molecule: O=C(O)[C@@H](Cc1ccc2ccccc2c1)NC(=O)n1c2ccccc2c2ccccc21
GI50: 2.85 µM
//
molecule: COc1ccc(CN2C3CC2CN(c2ccc(-c4cc(OCC(C)(C)O)cn5ncc(C#N)c45)cn2)C3)cn1
GI50: 3.34 µM
//
molecule: CCOC(=O)/C(C#N)=C\C=C(/Cl)c1ccc(Cl)cc1
GI50: 25.8 µM
//
molecule: O=C(N/N=C/c1ccccc1O)c1ccccc1
GI50: 3.6 µM
//
molecule: C=C1C(=O)O[C@H]2[C@H]1CC/C(COC(=O)NCC(C)c1ccc(CC(C)C)cc1)=C\CC[C@@]1(C)O[C@@H]21 (some centres undefined)
GI50: 0.775 µM
//
molecule: Nc1ccc(/C=C/C(=O)NCc2cc3cc(-c4ccc(C(=O)N5CCC(F)(F)CC5)cc4)cc(-c4ccc(F)cc4)c3o2)cn1
GI50: 5.95 µM
//
molecule: C(=N\Nc1nnn(Cc2ccccc2)n1)/c1ccccc1
GI50: 11.5 µM
